The reader will find IC50 measurements below, all made with Human immunodeficiency virus type 1 protease (Human immunodeficiency virus 1).
endpoint: IC50 (µM)

• O=C1N(CC2CC2)[C@@H](Cc2ccccc2)C(O)[C@H](Cc2ccccc2)N1CC1CC1 = 9
• O=C1N(Cc2ccccc2)[C@@H](Cc2ccccc2)C(O)[C@H](Cc2ccccc2)N1Cc1ccccc1 = 89
• C=CCN1C(=O)N(CC=C)[C@@H](Cc2ccccc2)C(O)[C@@H]1Cc1ccccc1 = 53
